Provide the recorded EC50 for the entries that follow.
- test target: Angola strain MARV GP ectodomain lacking residues 257-425 of the mucin-like domain (Marburg virus, Angola strain, UniProt Q1PD50 19-648)
- protocol summary: ELISA
Numbers only, in µg/mL.

{"binder": "MR191 human monoclonal antibody (antibody, V domains shown) VH: QLQLQESGPGLVKPSETLSLSCTVSGVSISDNSYYWGWIRQPPGKGLEWIGTISYSGNTYYNPSLKSRVSISGDTSKHQLSLKVSSVTAADTAVYYCARQRIVSGFVEWLSKFDYWGQGTLVTVSS VL: QSVLTQPPSVSGAPGQRVTISCTGSSSNIGAGFDVHWYQQLPGTAPKLLIYDNNNRPSGVPDRFSGSKSGTSASLAITGLQAEDEADYYCQSYDTSLSGPVVFGGGTKLTVL", "EC50 (µg/mL)": 5.1}

Query binder follows.
For reference, reported EC50 for MR208 (antibody, V domains shown) VH: QVQLQESGPGLVKPSETLSLTCSVSGDSVSSGDYYWSWLRQPPGKGLEWIGYIYYSGATNYNPSLKSRVTISLDTSKNQFSLKLTSVTAADTAVYYCARERAGFLEWLFFEDWGQGT VL: DIQMTQSPSSLSASVGDRVTIFCRASQSIGTYLSWYQQKPGKAPKVLIYATSNLQSGVPSRFSGSGSGTEFTLTISSLQPEDFATYYCQQSRTFGQGTKVDMK stands at 7.3
